I'd appreciate it if you could supply pEC50 values for the items below.
- target-or-test-system: T1, GPC3 endogenously expressed on HepG2 cells (UniProt P51654 25-554)
- T1 construct: whole, on cells
- assay-text: FACS on HepG2 cells;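 also: flow cytometric binding of chimeric antibodies to cells, read as mean fluorescence intensity, EC50 obtained by curve fitting of the MFI data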
Units for pEC50: none; it is -log10 of a concentration expressed in mol/L.

Consider the binder shown here: F2.152.3 human-murine chimeric antibody (antibody, human IgG1, kappa, V domains shown) VH: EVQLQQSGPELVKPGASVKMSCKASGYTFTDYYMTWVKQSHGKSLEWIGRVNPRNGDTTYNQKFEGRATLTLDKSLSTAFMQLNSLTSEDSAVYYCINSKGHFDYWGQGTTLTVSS VL: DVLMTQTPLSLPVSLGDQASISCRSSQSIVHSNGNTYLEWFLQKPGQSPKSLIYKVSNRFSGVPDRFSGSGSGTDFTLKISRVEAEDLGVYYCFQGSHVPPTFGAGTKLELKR What is its recorded pEC50?
9.64

Input F1.111.11 human-murine chimeric antibody (antibody, human IgG1, kappa, V domains shown) VH: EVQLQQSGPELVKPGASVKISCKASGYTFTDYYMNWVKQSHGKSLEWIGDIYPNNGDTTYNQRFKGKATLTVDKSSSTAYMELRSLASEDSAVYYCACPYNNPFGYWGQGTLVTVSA VL: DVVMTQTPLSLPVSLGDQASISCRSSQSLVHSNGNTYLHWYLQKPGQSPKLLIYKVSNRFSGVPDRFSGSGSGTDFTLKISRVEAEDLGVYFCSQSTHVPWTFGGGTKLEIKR
8.95

Input F1.145.22 human-murine chimeric antibody (antibody, human IgG1, kappa, V domains shown) VH: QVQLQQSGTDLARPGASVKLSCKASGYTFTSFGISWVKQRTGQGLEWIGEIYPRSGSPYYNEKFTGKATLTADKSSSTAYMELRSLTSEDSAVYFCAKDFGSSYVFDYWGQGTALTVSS VL: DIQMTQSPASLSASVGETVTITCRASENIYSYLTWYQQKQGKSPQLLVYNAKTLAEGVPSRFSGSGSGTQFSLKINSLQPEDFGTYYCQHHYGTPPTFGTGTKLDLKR
9.17

Input F1.115.8 human-murine chimeric antibody (antibody, human IgG1, kappa, V domains shown) VH: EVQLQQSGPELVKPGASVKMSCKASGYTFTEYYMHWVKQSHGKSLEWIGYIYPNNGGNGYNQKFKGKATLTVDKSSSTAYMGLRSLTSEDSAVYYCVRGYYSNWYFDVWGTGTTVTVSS VL: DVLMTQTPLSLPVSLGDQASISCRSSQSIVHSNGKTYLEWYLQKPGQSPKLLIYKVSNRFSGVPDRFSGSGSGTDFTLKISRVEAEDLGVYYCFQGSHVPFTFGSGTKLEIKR
9.74

Input F2.55.11 human-murine chimeric antibody (antibody, human IgG1, kappa, V domains shown) VH: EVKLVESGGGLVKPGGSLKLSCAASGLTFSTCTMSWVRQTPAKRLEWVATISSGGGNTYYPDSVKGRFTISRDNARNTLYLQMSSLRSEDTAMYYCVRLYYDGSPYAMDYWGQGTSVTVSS VL: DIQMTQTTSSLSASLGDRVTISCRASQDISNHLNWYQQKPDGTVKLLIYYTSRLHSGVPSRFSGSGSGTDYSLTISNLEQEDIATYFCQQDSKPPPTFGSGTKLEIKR
9.18
